Source: paper PMC5795001

Target: PA2652-LBD (Pseudomonas aeruginosa)
Construct: The DNA fragment encoding the LBD of PA2652 (Lys^34–Thr^205) was amplified; His-tag (vector-encoded by pET28b(+) via NdeI site); made in house; host or cells: Escherichia coli BL21 (DE3)
Sequence (Q9I0I6 34-205): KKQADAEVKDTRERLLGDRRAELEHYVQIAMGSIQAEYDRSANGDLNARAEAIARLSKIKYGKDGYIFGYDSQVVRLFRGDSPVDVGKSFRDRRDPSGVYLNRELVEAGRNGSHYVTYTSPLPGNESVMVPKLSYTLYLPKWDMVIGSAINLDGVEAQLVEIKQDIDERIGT
Test: biochemical
Type: binding, Pseudomonas aeruginosa PAO1
quantity-measured: pKd
Answer as the number alone; pKd is minus log10 of concentration in mol/L.

Before answering, review these 4 worked examples.
• O=C(O)C[C@H](O)C(=O)O [L-malic acid] = 4.64
• O=C(O)CC(Br)C(=O)O (racemic) [D,L-bromosuccinic acid] = 2.91
• CC(O)(CC(=O)O)C(=O)O (racemic) [D,L-citramalic acid] = 4.21
• CC(CC(=O)O)C(=O)O (racemic) [D,L-methylsuccinic acid] = 3.65

[in] Fill in the blank: the reported pKd of C/C(=C/C(=O)O)C(=O)O [citraconic acid] is ____.
[out] 3.68
